What Ki was measured for each of the following?
Biological target: Delta-type opioid receptor (Rattus norvegicus, UniProt P33533)
Sequence (P33533 whole entry): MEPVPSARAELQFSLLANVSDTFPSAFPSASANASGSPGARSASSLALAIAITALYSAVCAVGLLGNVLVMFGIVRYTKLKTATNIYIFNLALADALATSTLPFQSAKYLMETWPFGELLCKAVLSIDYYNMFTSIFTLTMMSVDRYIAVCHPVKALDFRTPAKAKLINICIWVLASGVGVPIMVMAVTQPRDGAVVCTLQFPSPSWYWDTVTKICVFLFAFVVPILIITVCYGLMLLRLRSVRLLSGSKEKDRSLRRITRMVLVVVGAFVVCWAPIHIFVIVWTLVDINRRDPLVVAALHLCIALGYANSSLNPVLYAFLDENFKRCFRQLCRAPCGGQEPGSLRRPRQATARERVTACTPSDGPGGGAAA
Experiment: Inhibition of [3H]naloxone binding to rat brain homogenate Opioid receptor delta
Residues, ends and D or L forms follow the SMILES beside them.
One number for each entry, in nM.

Use these answered entries as a reference point.
CC(C)[C@H](NC(=O)[C@H](CC(=O)O)NC(=O)[C@H](Cc1ccccc1)NC(=O)[C@@H](C)NC(=O)[C@@H](N)Cc1ccc(O)cc1)C(=O)N[C@H](C(=O)NCC(N)=O)C(C)C	0.73
CC(C)[C@H](NC(=O)[C@H](CC(=O)O)NC(=O)[C@H](Cc1ccccc1)NC(=O)[C@@H](C)NC(=O)[C@@H]1Cc2cc(O)ccc2CN1)C(=O)N[C@H](C(=O)NCC(N)=O)C(C)C	10.4

Read the next record carefully.
Query block: What does the record list as Ki for C[C@@H](NC(=O)[C@@H](N)Cc1ccc(O)cc1)C(=O)N[C@@H](Cc1ccccc1)C(=O)N[C@@H](Cc1ccccc1)C(N)=O (HELM PEPTIDE1{Y.[dA].F.F.[am]}$$$$V2.0) ?
Result block: 1820

Each recorded value in this set is attributed to ChEMBL document CHEMBL1144431.
